- System: MALME-3M melanoma
- PROCEDURE DETAILS: NCI-60 one-dose screen, 48 h (100 = growth as untreated, 0 = no growth, -100 = all killed)
- TEST CONDITIONS: 10 µM unless noted
This is part of a sample that, as a whole, favours compounds with a hit. Of some 83,000 tested, about 20% had one in any assay.
Values of growth strictly less than 70% map to Y, and values of at least 70% map to N.

COMPOUND | CATEGORY
Clc1ccc2c(NCCN3CCN(c4ccnc(N5CCCC5)n4)CC3)ccnc2c1 | Y
CCOC(=O)c1c(-c2ccc(C)cc2)c(C#N)c(=O)n(-c2cccc(C(F)(F)F)c2)c1N | N
Cc1nc2sc(C(=O)Nc3cccc4ncccc34)c(N)c2cc1C(C)O (stereo not given) | N
O=C(CCCOc1ccc(Br)cc1)Nc1ncc(Cc2ccc(F)cc2)s1 | N
O=C1/C(=C/c2ccccc2)CN(C(=O)C(Cl)Cl)C/C1=C\c1ccccc1 | Y
O=C(CCl)n1nnnc1Cc1ccccc1 | N
O=C([C@H]1C[C@H]1c1ccc(S(F)(F)(F)(F)F)cc1)N1CCN(c2cc(Cl)ccc2C(F)(F)F)CC1 | N
O=C(NNc1ccccc1)c1ncc[nH]1 | Y
COc1ccc(Oc2nc(Nc3ccc(N4CCOCC4)cc3)ncc2NC(=O)c2cccc(C(F)(F)F)c2)cc1 | N
CS(=O)(=O)Nc1cc(-c2ccc3ncnc(Nc4ccc(F)c(Cl)c4)c3c2)cnc1Cl | Y

---

- Tested on: NCI-H23 lung
- PROCEDURE DETAILS: NCI-60 one-dose screen, 48 h
- TEST CONDITIONS: 10 µM unless noted
About 83,000 compounds went through this panel and 20% of them were active in at least one assay; those are over-represented in the sample as a whole. Calls of active or inactive are those of the source. The calls were made as follows: active = growth percent below 10; inactive = the rest.
Classes used: 1 (active), 0 (inactive)

MOLECULE | CATEGORY
COc1cc(-c2nn(-c3cccc(NC(=O)CCN4CCN(C)CC4)c3)cc2-c2ccncc2)ccc1Cl | 0
O=C1/C(=C/c2ccccc2)CN(C(=O)C(Cl)Cl)C/C1=C\c1ccccc1 | 1
C#CCOc1cccc(Nc2ncc3ncn(C4CCN(C(=O)CCl)C4)c3n2)c1 (stereo not given) | 0
O=C(Nc1ncc(Cc2cccc(C(F)(F)F)c2)s1)c1ccc(-n2cnnn2)cc1 | 0
CN1CCN(c2ccc(/C=C/C(=O)c3ccc(O)cc3)cc2)CC1 | 0

---

- Test system: A549/ATCC NSCLC
- PROCEDURE DETAILS: NCI-60 one-dose screen, 48 h (100 = growth as untreated, 0 = no growth, -100 = all killed)
- TEST CONDITIONS: 10 µM unless noted
This is part of a sample that, as a whole, favours compounds with a hit. Of some 83,000 tested, about 20% had one in any assay.

STRUCTURE SMILES | UOM | growth
CCN(C(=O)N1CCN(c2cc3c(cc2F)c(=O)c(C(=O)O)cn3C2CC2)CC1)c1nc(-c2ccccc2)cs1 | % | 12.4
C#Cc1cc(C(=O)Nc2ccc(CN3CCN(C)CC3)c(C(F)(F)F)c2)ccc1C | % | 70.8
O=C(NCCCN1CCCCC1)c1ccc(-c2nc3ccc4[nH]ncc4c3c3c2CCCC3)cc1 | % | 26.6
O=C(NNc1ccccc1)c1ncc[nH]1 | % | 64.4
Cc1nc2cccc(NCCCCC(=O)NO)c2c(=O)n1-c1ccccc1 | % | 78.8
